For each entry below, report its Peptide MIC values value.
- Tested on: E. coli
- Format: cell-based
- Condition notes: agarose dilution; E. coli ESS
Numbers only here, please. The scale is µg/mL.

[ask] Please tell me the measured Peptide MIC values for ILKKFPFFPFRRK [MBI 11A1CN] ; system: E. coli.
[reply] 16

[ask] Write Peptide MIC values of ILKKWPWWPWRK [MBI 11B4CN] ; system used: E. coli
[reply] 8

[ask] Fill in: Peptide MIC values on E. coli, entry ILKKWPWWPWK [MBI 11G13CN]
[reply] 32

----------
- System: bacterial isolates
- Test: microbe, parasite or virus in culture
- Format: cell-based
- Condition notes: peptide + Amikacin; A. baumannii ABI003
Property: FIC
Quick one: just the number, no unit, thanks!

[ask] Provide measured FIC value, entry: KKWWRRALQGLKTAGPAIQSVLNK [MBI 21A2]
[reply] 0.52

[ask] Please give the documented FIC of KWKSFIKKLTSAAKKVVTTAKPLISS [MBI 26]
[reply] 0.38

[ask] Name the recorded FIC of the sequence listed here: KWKLFIKKLTPAVKKVLLTGLPALIS [MBI 29F1]
[reply] 0.63

[ask] Answer with the recorded FIC of ILRWPWWPWRRKIMILKKAGS [MBI 11B16CN] only.
[reply] 0.53

----------
I'd be grateful if you could share measured FIC for these entries.
- Test system: bacterial isolates
- Test: microbe, parasite or virus in culture
- Format: cell-based
- Condition notes: peptide + Piperacillin; H. influenzae 1

[ask] Given the sequence ILKKWPWWPWRRK [MBI 11E3CN] , write its reported FIC.
[reply] 0.52

[ask] State its FIC for this sequence: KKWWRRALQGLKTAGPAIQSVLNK [MBI 21A2]
[reply] 0.31

[ask] Please look at this sequence and report its FIC: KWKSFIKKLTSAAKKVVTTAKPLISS [MBI 26]
[reply] 0.53

[ask] Indicate the recorded FIC value for this sequence: ILRWPWWPWRRK [MBI 11B7CN]
[reply] 0.50

----------
- Test system: bacterial isolates
- Test: microbe, parasite or virus in culture
- Assay type: cell-based
- Condition notes: A. baumannii ABI001
Give Amikacin MIC + Peptide for every item shown.
Give just the number in µg/mL; leave the unit off.

[ask] Let me know recorded Amikacin MIC + Peptide for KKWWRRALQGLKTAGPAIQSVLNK [MBI 21A2] , thanks.
[reply] 32

[ask] Consider the sequence KWKLFIKKLTPAVKKVLLTGLPALIS [MBI 29F1] . State its measured Amikacin MIC + Peptide.
[reply] 0.25

[ask] Give the reported Amikacin MIC + Peptide for this sequence. ILRWPWWPWRRKIMILKKAGS [MBI 11B16CN]
[reply] 0.125

[ask] Report Amikacin MIC + Peptide for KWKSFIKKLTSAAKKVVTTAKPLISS [MBI 26]
[reply] 8

----------
- Tested on: A. calcoaceticus
- Type: cell-based
- Condition notes: A. calcoaceticus AC002
Hi there, I'd appreciate the recorded MIC for every entry that follows.
Note: state the figure and append the unit.

[ask] Item ALRWPWWPWRRK [MBI 11H01CN] : provide MIC
[reply] 2 µg/mL

[ask] Consider the sequence ILRWPWAPWRRK [MBI 11H07CN] and give its recorded MIC.
[reply] 8 µg/mL

[ask] For the sequence ILRWPWWPWARK [MBI 11H10CN] , give its reported MIC.
[reply] 4 µg/mL

[ask] Note down MIC recorded for ILKKWPWWPWRRK [MBI 11ACN]
[reply] 2 µg/mL

[ask] Tell us which MIC value is on record for WPWWPWRRK [MBI 11G27CN]
[reply] 2 µg/mL

[ask] // fetch MIC given entry RWWWPWRRK [MBI 11G28CN]
[reply] 2 µg/mL

[ask] Give MIC for ILRAPWWPWRRK [MBI 11H04CN]
[reply] 8 µg/mL

[ask] For the sequence WRWWKPKWRWPKW [MBI 11J02CN] , give its reported MIC.
[reply] 4 µg/mL

[ask] State its MIC for this sequence: ILRWPWWPWRAK [MBI 11H11CN]
[reply] 4 µg/mL

[ask] Indicate its recorded MIC; the sequence in question is ILRWAWWPWRRK [MBI 11H05CN]
[reply] 4 µg/mL

[ask] For ILRWWVWWVWWRRK [MBI 11F6CN] , write its MIC.
[reply] 16 µg/mL

[ask] Determine its reported MIC: CLRWPWWPWRRK [MBI 11D19CN]
[reply] 8 µg/mL

[ask] In one line, give reported MIC of the entry LRWWWPWRRK [MBI 11G25CN] .
[reply] 2 µg/mL

[ask] State its MIC: ILRWPWWPARRK [MBI 11H09CN]
[reply] 4 µg/mL
